assay: gradient 5% acetonitrile 3 min, to 50% in 2 min, to 85% in 15 min, held 3 min, 100 µL/min; conditions: column: Zorbax Extend-C18 2.1 x 50 mm; eluents: water / acetonitrile, 0.1% formic acid
READOUT_LABEL: RP-LC retention time (s)
Please give a number only; it is taken to be in s.

Please review the following examples before continuing.
compound=CCCN(C)C(=O)c1ccc2nc(-c3ccc(C)cc3)cn2c1 readout_label="RP-LC retention time" observed_value=641
compound="Cc1csc(NC(=O)C2CC(=O)N(c3n[nH]c4ccccc34)C2)n1 (stereo not given)" readout_label="RP-LC retention time" observed_value=665
compound="COc1ccc(Cl)cc1N1CC(c2nc(-c3ccncc3)no2)CC1=O (stereo not given)" readout_label="RP-LC retention time" observed_value=752
compound=CCCN1CCN(CCCNC(=O)CN2C(=O)CCn3nc(-c4cn(C)c5ccccc45)cc32)CC1 readout_label="RP-LC retention time" observed_value=589
compound=CC1CCN(C(=O)C2=NN(Cc3ccccc3F)c3ccccc3S2(=O)=O)CC1 readout_label="RP-LC retention time" observed_value=1030
compound=Cc1ccc(C)c(NC(=O)Cn2ccc3sccc3c2=O)c1 readout_label="RP-LC retention time" observed_value=742
compound=COc1ccc(C)cc1NC(=O)Cn1nc2cc(-c3ccccc3)nc(C)n2c1=O readout_label="RP-LC retention time" observed_value=752
compound=CCCn1c(=O)c(-c2ccc(C(=O)NC(C)C)cc2)nc2cccnc21 readout_label="RP-LC retention time" observed_value=894
compound=Cc1ccc(S(=O)(=O)Nc2cc(C(=O)O)ccc2N2CCN(c3ccccn3)CC2)cc1 readout_label="RP-LC retention time" observed_value=673
compound="Cc1ccc(C2CCCN2C(=O)Nc2ccc3c(c2)OCCO3)cc1 (stereo not given)" readout_label="RP-LC retention time" observed_value=922

Output measured RP-LC retention time for this item: `CCSc1nnc(-c2nn(C)c3c2CN(S(=O)(=O)c2ccc(F)cc2)CC3)n1CC`
943

Output measured RP-LC retention time for this item: O=C(Cn1nc2c(c1NC(=O)Cc1noc3ccccc13)CSC2)NCC1CCCO1 (stereo not given)
853

* * *

assay: gradient 5% acetonitrile 3 min, to 50% in 2 min, to 85% in 15 min, held 3 min, 100 µL/min; details: column: Zorbax Extend-C18 2.1 x 50 mm; eluents: water / acetonitrile, 0.1% formic acid
Criterion: RP-LC retention time strictly less than 800 s. Met: YES. Not met: NO.

Check out these entries, answers already filled in.
molecule=COc1ccc2c(c1)-c1nc(NC(=O)c3ccc(C)cc3)sc1CC2 class=NO
molecule=Nc1cc(C2CCN(C(=O)c3cc4ccccc4[nH]3)CC2)no1 class=YES
molecule=CN1C(=O)[C@]2(CO)SSC1(Cc1cn([C@]34C[C@@]56SS[C@@](CO)(C(=O)N5[C@H]3Nc3ccccc34)N(C)C6=O)c3ccccc13)C(=O)N2C class=NO
molecule=O=C(Nc1nccnc1C(=O)NCc1ccncc1)c1ccccc1 class=YES

Lab log: compare recorded RP-LC retention time with 800 s; is it strictly lower for `COC(=O)c1cccc(NC(=O)c2sc3ncccc3c2-n2cccc2)c1` ?
NO

Lab log: compare recorded RP-LC retention time with 800 s; is it strictly lower for `Cc1ccc(-c2csc3c(=O)n(CC(=O)NC4CCCC4)cnc23)cc1` ?
NO

Lab log: compare recorded RP-LC retention time with 800 s; is it strictly lower for CCC(C)NC(=O)c1nnc(-c2ccc(S(=O)(=O)N3CCCCC3)cc2)o1 (stereo not drawn) ?
NO

Lab log: compare recorded RP-LC retention time with 800 s; is it strictly lower for `O=C(NC1CCCCC1)N1CCN(c2ncccc2-c2nnc(C3CC3)o2)CC1` ?
YES

Lab log: compare recorded RP-LC retention time with 800 s; is it strictly lower for `CC1=NS(=O)(=O)N(Cc2ccccc2)C=C1C(=O)OCc1noc(C2CCCCC2)n1` ?
NO

Lab log: compare recorded RP-LC retention time with 800 s; is it strictly lower for `Cc1ccc(-n2cc(C(=O)NCc3ccco3)nn2)cc1C` ?
NO

Lab log: compare recorded RP-LC retention time with 800 s; is it strictly lower for `COCC(=O)N(C)CCc1noc(-c2ccc(C(=O)N3CCCC3)cc2)n1` ?
YES

Lab log: compare recorded RP-LC retention time with 800 s; is it strictly lower for `COc1ccc(C(=O)N2CCN(c3nc(-c4ccccc4)no3)CC2)cc1OC` ?
NO

Lab log: compare recorded RP-LC retention time with 800 s; is it strictly lower for `Cc1noc(-c2nc(-c3ccc(N(C)C)cc3)no2)n1` ?
NO

Lab log: compare recorded RP-LC retention time with 800 s; is it strictly lower for `Cc1cccc(-c2noc(Cn3c(=O)n(-c4ccc(F)cc4)c(=O)c4sccc43)n2)c1` ?
NO

Lab log: compare recorded RP-LC retention time with 800 s; is it strictly lower for `O=c1n(Cc2nc(-c3ccc4c(c3)OCO4)no2)nc2ccc(-c3ccccc3)nn12` ?
NO

Lab log: compare recorded RP-LC retention time with 800 s; is it strictly lower for `COCCC(=O)NCCC1CCN(C(=O)Nc2cc(F)ccc2F)CC1` ?
YES

* * *

experiment: gradient 5% acetonitrile 3 min, to 50% in 2 min, to 85% in 15 min, held 3 min, 100 µL/min; details: column: Zorbax Extend-C18 2.1 x 50 mm; eluents: water / acetonitrile, 0.1% formic acid
Rule: yes (1) for RP-LC retention time not less than 900 s, no (0) for anything less.

compound=O=C(Cn1nc(-c2cccnc2)ccc1=O)Nc1nc2ccccc2[nH]1 class="no (0)"
compound=Cc1[nH]nc(-c2ccc(S(=O)(=O)NCCc3ccc(S(N)(=O)=O)cc3)o2)c1C class="no (0)"
compound="COc1ccc(OC)c(S(=O)(=O)N2CCCC(C(=O)NCc3ccccc3OC)C2)c1 (stereo not given)" class="no (0)"
compound=Cc1cn2c(S(=O)(=O)N3CCCCC3)c(C(C)C)nc2s1 class="yes (1)"

// inclusive: RP-LC retention time at least 900 s? input: `CCCOc1ccc(CN2CCN(C(=O)c3ccoc3)CC2)cn1`
no (0)

* * *

assay: gradient 5% acetonitrile 3 min, to 50% in 2 min, to 85% in 15 min, held 3 min, 100 µL/min; details: column: Zorbax Extend-C18 2.1 x 50 mm; eluents: water / acetonitrile, 0.1% formic acid
// reported RP-LC retention time per item
Please give a number only; it is taken to be in s.

Please review the following examples before continuing.
molecule=Cc1ccc(CNC(=O)c2ccc(-c3cncnc3)nc2)cc1C observed_value=782
molecule=COc1ccc(CC(=O)N2CCc3cn(C)c4cccc(c34)C2)cc1 observed_value=946
molecule=COCCNC(=O)N1CCN(Cc2nc3cc(C(=O)N(C)C)ccc3o2)CC1 observed_value=559
molecule="CCn1c(C(=O)N2CCCC(C(=O)NCCc3ccc(S(N)(=O)=O)cc3)C2)cc2sccc21 (centres undefined)" observed_value=733
molecule=COc1ccc(CNC(=O)C2(C)CCN(C(=O)Nc3cccc(SC)c3)CC2)cc1 observed_value=845
molecule="CC(C)CN1C(=O)c2cccn2CC1CNC(=O)CC1CCCC1 (centres undefined)" observed_value=784
molecule=CC(C)NC(=O)N(C)Cc1nc2cc(C(=O)N3CCCC3)ccc2n1C observed_value=550
molecule=COc1ccc(CCNC(=O)CSc2nnc(Cc3csc(N)n3)n2C)cc1OC observed_value=539

Output measured RP-LC retention time for this item: COc1cc(OC)c(N(C)C(=O)C2CCCN(c3ncnc4c3nc3n4CCCCC3)C2)cc1Cl (centres undefined)
854

* * *

assay: gradient 5% acetonitrile 3 min, to 50% in 2 min, to 85% in 15 min, held 3 min, 100 µL/min; conditions: column: Zorbax Extend-C18 2.1 x 50 mm; eluents: water / acetonitrile, 0.1% formic acid
// reported RP-LC retention time per item

Please review the following examples before continuing.
compound="CC(C)(C)NC(=O)NC1CCN(C(=O)C2CCCC2)C1 (configuration not stated)" readout_label="RP-LC retention time" observed_value="678 s"
compound="Cc1nnc(N2CCCC(C(=O)N3CCCCC3)C2)c2nn(-c3ccc(Cl)cc3)c(C)c12 (configuration not stated)" readout_label="RP-LC retention time" observed_value="741 s"
compound="Cc1cccc(NC(=O)C2CCc3sc(C(=O)N(C)C)cc3C2)c1 (configuration not stated)" readout_label="RP-LC retention time" observed_value="846 s"
compound="O=C(Cn1cnc2nc(N3CCCC(C(=O)NC4CC4)C3)sc2c1=O)NC1CCCCC1 (configuration not stated)" readout_label="RP-LC retention time" observed_value="652 s"
compound=Cc1nnc2n1CCN(C(=O)Cc1c(F)cccc1Cl)C2 readout_label="RP-LC retention time" observed_value="616 s"
compound="CCCNC(=O)C1CCCN(c2nc3ncn(CC(=O)Nc4cc(F)ccc4C)c(=O)c3s2)C1 (configuration not stated)" readout_label="RP-LC retention time" observed_value="705 s"
compound="CCC(=O)N1CCc2cc(N3CC(C(=O)NCC(C)C)CC3=O)ccc21 (configuration not stated)" readout_label="RP-LC retention time" observed_value="687 s"
compound=CCc1nc2c(=O)n(CC(=O)N3CCCC3)nc(C)c2s1 readout_label="RP-LC retention time" observed_value="620 s"

Output measured RP-LC retention time for this item: `COc1ccc(NC(=O)N(C)CCc2noc(COc3ccc(Cl)cc3)n2)cc1`
1010 s

Output measured RP-LC retention time for this item: `CCc1nc2cc(-c3noc(-c4ccc5cc[nH]c5c4)n3)ccc2o1`
1110 s

Output measured RP-LC retention time for this item: Cn1c(=O)c(N2CCCC(C(=O)N3CCN(Cc4ccc5c(c4)OCO5)CC3)C2)nc2ccccc21 (configuration not stated)
674 s

Output measured RP-LC retention time for this item: `CN(CCc1noc(COc2ccc(F)cc2)n1)C(=O)Nc1cccc(Br)c1`
971 s

Output measured RP-LC retention time for this item: `CCNC(=O)N1CCc2c(c(-c3nc(-c4ccccc4)no3)nn2C)C1`
787 s

Output measured RP-LC retention time for this item: O=C(NC1CCCCC1)C1CCCN(c2ccc(=O)n(-c3cccc(F)c3)n2)C1 (configuration not stated)
785 s
